IC50 for assorted molecules
biological target: PD-1/PD-L1 (Homo sapiens); construct: unspecified kit tag (tag1 or tag2, recognised by the detection antibodies); assay: Homogeneous Time-Resolved Fluorescence (HTRF) PD-1/PD-L1 binding assay; conditions: CisBio kit
Sequence (Q9NZQ7 19-238 limits assumed): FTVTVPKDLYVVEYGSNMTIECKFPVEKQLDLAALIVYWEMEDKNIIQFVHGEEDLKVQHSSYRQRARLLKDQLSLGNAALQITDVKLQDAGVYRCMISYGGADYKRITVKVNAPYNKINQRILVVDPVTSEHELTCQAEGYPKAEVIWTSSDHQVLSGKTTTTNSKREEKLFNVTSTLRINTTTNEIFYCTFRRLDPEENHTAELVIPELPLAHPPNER
// units = nM; emit number, no label

Example entries and their recorded answers appear below.
[
  {
    "MOLECULE": "Cc1c(/C=C/c2cc(CN[C@@](C)(CO)C(=O)O)ccc2C(F)(F)F)cccc1-c1ccccc1 [Compound 29]",
    "SYSTEM UNDER TEST": "PD-1/PD-L1 (Homo sapiens)",
    "REPORTED MEASUREMENT": 19
  },
  {
    "MOLECULE": "Cc1c(/C=C/c2cc(CNC(CO)C(=O)O)ccc2C(F)(F)F)cccc1-c1ccc2c(c1)OCCO2 (stereo not shown) [Compound 1]",
    "SYSTEM UNDER TEST": "PD-1/PD-L1 (Homo sapiens)",
    "REPORTED MEASUREMENT": 14
  },
  {
    "MOLECULE": "Cc1ccc(CNC(C)(CO)C(=O)O)cc1/C=C/c1cccc(-c2cccc(F)c2)c1C (stereo not shown) [Compound 9]",
    "SYSTEM UNDER TEST": "PD-1/PD-L1 (Homo sapiens)",
    "REPORTED MEASUREMENT": 57
  }
]

Consider the additional molecule presented here.
Looking up Cc1ccc(CN[C@@H](CO)C(=O)O)cc1/C=C/c1cccc(-c2ccc3c(c2F)OCCO3)c1C [Compound 14] , I found its IC50 recorded as 19
